Test: chemical genetic growth profiling, strain panel (AID 1159580);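 note: tested at 20 µM; growth read once vehicle control cultures reached saturation at 30 °C; 1 = growth at the plate median or of vehicle wells; lower values mean less growth of the strain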
Conditions: S. cerevisiae deletion strains, growth OD, locus YOR316C, strain cot1, active compounds read low
Screen size: about 5,500 compounds; about 2,000 (36%) were called active. About 18% were inconclusive and are not listed. Some of the results follow.
measurement-kind: normalized growth

# compound, measurement-kind, value-reported
data = [
    ("CN(C)C(=S)SSC(=S)N(C)C", "normalized growth", "0.0552 (active)"),
]

Lookup: If you can, please state the reported normalized growth value of C[C@]12CCC(=O)C=C1CCC1C2CC[C@@]2(C)C1CC[C@@H]2O (stereo partly drawn) .
Found: 1.03 (inactive)

Lookup: If you can, please state the reported normalized growth value of O=C(O)c1cc2ccccc2c(Cc2c(O)c(C(=O)O)cc3ccccc23)c1O .
Found: 0.997 (inactive)

Lookup: If you can, please state the reported normalized growth value of CC(C(=O)O)c1ccc(-c2ccccc2)c(F)c1 (stereo not drawn) .
Found: 0.965 (inactive)

Lookup: If you can, please state the reported normalized growth value of COc1cc2c(cc1OC)C1C(=O)c3ccc4c(c3OC1CO2)CCC(C)(C)O4 (stereo not drawn) .
Found: 1.01 (inactive)

Lookup: If you can, please state the reported normalized growth value of CCCCCCCCCCCCCCCC[N+](C)(C)C .
Found: 0.0575 (active)

Lookup: If you can, please state the reported normalized growth value of Cc1cccc(C)c1OCC(C)N (stereo not drawn) .
Found: 0.977 (inactive)

Lookup: If you can, please state the reported normalized growth value of O=C(CC[N+](=O)[O-])OC[C@H]1O[C@@H](O)[C@H](OC(=O)CC[N+](=O)[O-])[C@@H](OC(=O)CC[N+](=O)[O-])[C@@H]1OC(=O)CC[N+](=O)[O-] .
Found: 0.992 (inactive)

Lookup: If you can, please state the reported normalized growth value of C[C@@H]1[C@H]2[C@H](O[C@@H]3O[C@H](CO)[C@@H](O)[C@H](O)[C@H]3O)OC=C(C(=O)O)[C@H]2C[C@@H]1O .
Found: 0.981 (inactive)

Lookup: If you can, please state the reported normalized growth value of C[N+](C)(C)CCOC(N)=O .
Found: 0.976 (inactive)

Lookup: If you can, please state the reported normalized growth value of CCC(C)C(OC(C)=O)C(=O)OC1C(O)C2C3(C)C=CC(=O)C(C)(C)C3CC(OC(=O)C(O)C(C)C)C2(C)C23OC2CC(c2ccoc2)C13C (stereo not drawn) .
Found: 0.996 (inactive)

Lookup: If you can, please state the reported normalized growth value of CC(=O)[C@H]1CCC2C3CCC4=CC(=O)CC[C@]4(C)C3CC[C@@]21C (stereo partly drawn) .
Found: 0.884 (active)

Lookup: If you can, please state the reported normalized growth value of CC1CC2C3CC(F)C4=CC(=O)C=CC4(C)C3(F)C(O)CC2(C)C1(O)C(=O)CO (stereo not drawn) .
Found: 1.03 (inactive)

Lookup: If you can, please state the reported normalized growth value of COc1ccc2c(c1)OCc1c-2oc2cc(OC)ccc12 .
Found: 1.02 (inactive)

Lookup: If you can, please state the reported normalized growth value of CCC(=O)O[C@H]1CCC2C3CCC4=CC(=O)CC[C@]4(C)C3CC[C@@]21C (stereo partly drawn) .
Found: 0.987 (inactive)

Lookup: If you can, please state the reported normalized growth value of CC1=C(/C=C/C(C)=C/C=C/C(C)=C/C=C/C=C(C)/C=C/C=C(C)/C=C/C23OC2(C)CC(O)CC3(C)C)C(C)(C)CC(O)C1 (stereo not drawn) .
Found: 1.03 (inactive)

Lookup: If you can, please state the reported normalized growth value of CC(C)(OC(=O)c1ccccc1)[C@@H]1Cc2cc3ccc(=O)oc3cc2O1 .
Found: 0.976 (inactive)

Lookup: If you can, please state the reported normalized growth value of CC(=O)OCC(=O)[C@H]1CCC2C3CCC4=CC(=O)CC[C@]4(C)C3CC[C@@]21C (stereo partly drawn) .
Found: 0.947 (inactive)

Entry source: PubChem BioAssay AID1159580
